Every entry's value here was drawn from paper PMC9352680.

- targetDesc: T1, PUF4 RNA-binding domain (Saccharomyces cerevisiae, UniProt P25339 537-888)
- T1 sequence: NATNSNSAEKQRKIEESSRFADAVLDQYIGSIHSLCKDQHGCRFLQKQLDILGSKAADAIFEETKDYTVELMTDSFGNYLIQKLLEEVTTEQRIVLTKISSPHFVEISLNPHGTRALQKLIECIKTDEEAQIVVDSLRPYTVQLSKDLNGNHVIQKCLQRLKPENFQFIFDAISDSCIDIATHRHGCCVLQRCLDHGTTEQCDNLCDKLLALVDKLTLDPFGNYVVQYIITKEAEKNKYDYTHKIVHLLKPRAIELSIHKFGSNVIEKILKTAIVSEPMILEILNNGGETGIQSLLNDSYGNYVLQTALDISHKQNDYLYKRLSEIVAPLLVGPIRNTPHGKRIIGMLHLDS
- testDetails: Mg; RNA-MaP; 20 mM Na-HEPES pH 7.4, 30 mM KOAc, 0.75 mM MgCl2, 0.1% Tween-20, 5% glycerol, 0.1 mg/mL BSA, 2 mM DTT; 25 C; 0.0125-409.6 nM protein
- runConditions: tags: N-His6-TEV cleaved; C-SNAP kept, Cy3B-labelled; label: tethered on chip by stalled RNA polymerase
pKd: −log10 of the molar value.
Think of 8 as a floor: if pKd stands on it or above, it is Fulfilled; beneath it, Not fulfilled.

See these solved cases before continuing.
Ib_S4_P5E.1_K5.1_C5.1_H5.1_[T3C]_A5.1_[A7C]_F5.1_T5.1 (ssRNA) RNA: UUUGACAACUGAUCGUUCUUUCUUGCAUUCUUAUUCUUUCUCGAUCAGUUGUCUUU = Not fulfilled
UCUCUUUGUAUGUUCCUCUCUU (ssRNA) [Ic_S1_P5E.1_K5.1_C5.1_H5.1_A5.1_[T6G]_[A7T]_F5.1_[T9C]_[A10C]_T5.1] = Not fulfilled
Id_ii_S2_P5E.4_K5.3_C5.2_[C-2A]_[T-1C]_H5.3_A5.1_F5.1_T5.2_[T11G]_[A12C] (ssRNA) RNA: UUUGAUUAAUAUGAUAUCGUUCUUUCUACACACUUAUUAGCUUCUUUCUCGAUAUCAUAUUAAUCUUU = Not fulfilled
UCUCUUUGUAGUUACUCUCUU (ssRNA) [Ic_S1_P4E.1_K4.1_C4.1_H4.1_A4.1_[T5G]_[A6T]_F4.1_[T8A]_[A9C]_T4.1] = Not fulfilled
Ic_S2_P5E.1_K5.1_C5.1_H5.1_A5.1_[T6A]_[A7C]_F5.1_[T9A]_[A10G]_T5.1 (ssRNA) RNA: UUUGAUUAAUAUGAUAUCGUUCUUUCUUGUAUACUAGUUCUUUCUCGAUAUCAUAUUAAUCUUU = Fulfilled

Please indicate if the recorded pKd for Ie_S4_P5E.1_K5.1_C5.1_H5.1_[+1CTT]_A5.1_F5.1_T5.1 (ssRNA) RNA: UUUGACAACUGAUCGUUCUUUCUUCUUGUAUUAUUAUUCUUUCUCGAUCAGUUGUCUUU meets or exceeds 8.
Fulfilled

Please indicate if the recorded pKd for Id_ii_S2_P4E.3_K4.2_C4.2_[C-2A]_H4.2_A4.1_F4.1_T4.2_[G10A]_[T11C] (ssRNA) RNA: UUUGAUUAAUAUGAUAUCGUUCUUUCUAUUAUAUAUUAACUUCUUUCUCGAUAUCAUAUUAAUCUUU meets or exceeds 8.
Not fulfilled
